# credit: PubChem BioAssay (NCI)

# maps each entry to its TGI
test system: SNB-19 CNS; assay: NCI tumour cell line growth inhibition, 48 h

CHEMICAL_SMILES: CNCCCNc1ccnc2cc(Cl)ccc12
TGI: > 100 µM
//
CHEMICAL_SMILES: Cc1nc2c(Br)cc(Br)cc2c(=O)n1-c1nnc(-c2cccc(Cl)c2Cl)c(N)n1
TGI: > 100 µM
//
CHEMICAL_SMILES: O=S(=O)(OI(OI(OS(=O)(=O)C(F)(F)F)c1ccccc1)c1ccccc1)C(F)(F)F
TGI: > 100 µM
//
CHEMICAL_SMILES: CC12c3c4ccc(C=O)c3Oc3ccc(C=O)c(c31)Oc1ccc(C=O)c(c12)O4
TGI: > 25 µM
//
CHEMICAL_SMILES: CCCN(CCC)c1c([N+](=O)[O-])cc(C(=O)N(CC)CC)cc1[N+](=O)[O-]
TGI: > 100 µM
